B1: Protein PTHB1 (Homo sapiens), Q3SYG4 (parent)
chain: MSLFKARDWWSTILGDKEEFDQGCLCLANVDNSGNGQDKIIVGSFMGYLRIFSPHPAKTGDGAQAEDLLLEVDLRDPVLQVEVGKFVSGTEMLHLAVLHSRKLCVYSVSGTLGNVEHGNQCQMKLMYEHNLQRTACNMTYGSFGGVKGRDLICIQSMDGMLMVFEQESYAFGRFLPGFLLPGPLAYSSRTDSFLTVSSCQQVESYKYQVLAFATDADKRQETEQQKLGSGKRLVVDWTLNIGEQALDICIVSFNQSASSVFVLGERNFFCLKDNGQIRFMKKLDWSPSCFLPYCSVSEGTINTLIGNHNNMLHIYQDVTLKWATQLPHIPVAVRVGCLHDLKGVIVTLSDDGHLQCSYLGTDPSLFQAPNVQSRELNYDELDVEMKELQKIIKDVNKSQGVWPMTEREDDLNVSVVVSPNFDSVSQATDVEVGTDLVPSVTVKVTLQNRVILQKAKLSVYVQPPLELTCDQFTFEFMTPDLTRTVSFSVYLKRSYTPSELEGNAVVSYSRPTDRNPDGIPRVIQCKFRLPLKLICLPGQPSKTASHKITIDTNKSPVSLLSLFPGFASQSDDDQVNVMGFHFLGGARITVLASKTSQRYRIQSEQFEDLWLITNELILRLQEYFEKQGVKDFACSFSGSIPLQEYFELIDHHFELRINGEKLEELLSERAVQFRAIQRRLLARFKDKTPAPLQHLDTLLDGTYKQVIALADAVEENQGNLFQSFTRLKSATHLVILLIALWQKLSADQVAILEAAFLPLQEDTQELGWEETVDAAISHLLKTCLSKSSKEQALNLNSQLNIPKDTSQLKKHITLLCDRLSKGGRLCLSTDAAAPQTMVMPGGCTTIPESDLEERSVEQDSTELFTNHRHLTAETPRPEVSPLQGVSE
partner: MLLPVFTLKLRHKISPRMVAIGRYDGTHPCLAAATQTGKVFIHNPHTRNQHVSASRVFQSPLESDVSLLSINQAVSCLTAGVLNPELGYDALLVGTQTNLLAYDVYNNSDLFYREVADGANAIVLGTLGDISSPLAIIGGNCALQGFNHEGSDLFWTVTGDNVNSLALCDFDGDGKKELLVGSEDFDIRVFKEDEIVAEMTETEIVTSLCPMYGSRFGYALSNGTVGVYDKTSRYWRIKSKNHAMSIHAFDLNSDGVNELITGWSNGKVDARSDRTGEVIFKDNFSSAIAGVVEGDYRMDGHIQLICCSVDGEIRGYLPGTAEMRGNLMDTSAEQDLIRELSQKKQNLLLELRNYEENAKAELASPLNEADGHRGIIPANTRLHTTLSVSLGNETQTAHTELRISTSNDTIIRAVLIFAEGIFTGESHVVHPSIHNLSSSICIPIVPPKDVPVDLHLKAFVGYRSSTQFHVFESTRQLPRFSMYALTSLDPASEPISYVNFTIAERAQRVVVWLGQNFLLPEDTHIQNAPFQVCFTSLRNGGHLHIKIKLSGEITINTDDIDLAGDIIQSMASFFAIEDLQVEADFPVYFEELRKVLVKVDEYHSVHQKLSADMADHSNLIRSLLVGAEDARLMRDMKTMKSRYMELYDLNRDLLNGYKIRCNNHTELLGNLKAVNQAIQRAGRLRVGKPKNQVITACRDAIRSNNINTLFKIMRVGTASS

# Variants of: B1
# MEASUREMENT CONDITIONS: with bbs2_human BBS2, Q9BXC9
REPORTED PROPERTY: effect of a mutation on the interaction

Please review the following examples before continuing.
SEQUENCE CHANGE	MEASURED RESULT
W768A	with no effect
Q621A	with no effect
A682K	with no effect
N796A	with no effect
S639K	with no effect
D850A	with no effect
V485A	with no effect
V838E	with no effect

Input line: Fill in the blank: the reported effect of a mutation on the interaction of E878A is ____.
Output line: with no effect

Input line: Fill in the blank: the reported effect of a mutation on the interaction of V444E is ____.
Output line: with no effect

Input line: Fill in the blank: the reported effect of a mutation on the interaction of L795A is ____.
Output line: with no effect
